assayMethodText: Half-crystallisation time (t1/2), isothermal DSC
Type: physicochemical
We use 40 s as the dividing line for t1/2 (sec) 120° C.: on or above the line is met, below is not met.

Recorded results for 8 compounds are shown here.
| compound | group |
| --- | --- |
| CC(C)(C)c1ccc(C(=O)[O-])cc1.[Na+] [sodium para-tert-butylbenzoate, reference compound] | met |
| O=C([O-])Cc1cccc2ccccc12.[Na+] [sodium 1-naphthylacetate] | not met |
| O=C(O)c1ccccc1O [ortho-ONa-benzoic acid] | met |
| O=C([O-])Cc1ccccc1.[Na+] [sodium phenylacetate] | not met |
| O=C([O-])c1ccc([N+](=O)[O-])cc1Cl.[Na+] | met |
| O=C(O)c1cccc([N+](=O)[O-])c1 | met |
| O=C(O)c1cc(O)ccc1O [2,5-dihydroxy benzoic acid] | met |
| O=C(O)c1ccc(Oc2ccccc2)cc1 | not met |

Shift focus to the following entry.
IN: Could you please find out whether O=C(O)c1ccccc1 [sodium benzoate, reference compound] has t1/2 (sec) 120° C. that meets 40 s or exceeds it?
OUT: met
